Tested on: HEp-2 RSV Long CPE inhibition, luminescence
experiment summary: RSV-induced cytopathic effect inhibitors, dose response, cell-based, synthesized compounds, set 12, CPE (AID 540337)
Active and inactive are the calls of the source.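 How the source made its calls: active means at least 50% inhibition of virus-induced cell damage; inactive means the rest.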
Labels: active, inactive

>>> group_label("COCCCNC(=O)c1ccc(Cn2c(=O)c3ccccc3n(Cc3ccccn3)c2=O)cc1")
"inactive"
>>> group_label("COCCCNC(=O)c1ccc(Cn2c(=O)c3ccccc3n(CCc3ccc(C)cc3)c2=O)cc1")
"inactive"
>>> group_label("COCCCNC(=O)c1ccc(Cn2c(=O)c3ccccc3n(CC3CCCCC3)c2=O)cc1")
"inactive"
>>> group_label("COCCCNC(=O)c1ccc(Cn2c(=O)c3ccccc3n(CCc3ccc(Br)cc3)c2=O)cc1")
"inactive"
>>> group_label("COCCCNC(=O)c1ccc(Cn2c(=O)c3ccccc3n(Cc3cccnc3)c2=O)cc1")
"inactive"
>>> group_label("COCCCNC(=O)c1ccc(Cn2c(=O)c3ccccc3n(Cc3ccc(C)cc3)c2=O)cc1")
"active"
>>> group_label("COCCCNC(=O)c1ccc(Cn2c(=O)c3ccccc3n(CCc3ccc(C(F)(F)F)cc3)c2=O)cc1")
"inactive"
